Source of measurements: patent US20050049402A1

# SYSTEM UNDER TEST: human TNFα (Tumor Necrosis Factor-alpha), soluble (human, UniProt P01375 77-233)
# Sequence (P01375 77-233): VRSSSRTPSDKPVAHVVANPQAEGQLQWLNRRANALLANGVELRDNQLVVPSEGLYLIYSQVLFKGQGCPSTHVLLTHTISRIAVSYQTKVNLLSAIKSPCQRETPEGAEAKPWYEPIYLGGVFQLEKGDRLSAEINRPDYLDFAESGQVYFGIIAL
# PROTOCOL: cell-based or functional assay
READOUT: IC50 18 hr Pre-incubation, TNF induced apoptosis in MCF-7 cells (pM)

BINDER	READING
3.2 g1 (antibody, human IgG1, V domains shown) VH: EVQLVQSGAEVKKPGESLKISCKTSEYSFTSYWIGWVRQMPGKGLEWMGIIYLGDSDTRYSPSFQGQVTISADKSISTAYLQWSSLKASDTAMYYCARSNWGLDYWGQGTLVTVSS VL: QSVLTQPPSVSGAPGQRVTISCTGSSSNIGAGYDVHWYQQFPGTAPKLLIQGNSNRPSGVPDRFSGSKSGTSASLAITGLQAEDEADYYCQSYDSSLSGSVFGGGTKLTVL	38.6
